# TESTED SYSTEM: human CB2 receptor (hCB2) (Homo sapiens, UniProt P34972)
# Sequence (P34972 whole entry): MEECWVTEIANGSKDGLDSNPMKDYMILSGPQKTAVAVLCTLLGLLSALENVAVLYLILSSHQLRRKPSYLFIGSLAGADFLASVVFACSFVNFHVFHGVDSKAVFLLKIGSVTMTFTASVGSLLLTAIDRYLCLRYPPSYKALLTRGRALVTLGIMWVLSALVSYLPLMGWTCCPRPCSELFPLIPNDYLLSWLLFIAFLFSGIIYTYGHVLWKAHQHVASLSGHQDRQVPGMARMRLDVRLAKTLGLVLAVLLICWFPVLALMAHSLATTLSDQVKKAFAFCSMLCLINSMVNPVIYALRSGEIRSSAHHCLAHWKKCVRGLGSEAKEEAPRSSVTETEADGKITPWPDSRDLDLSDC
# ASSAY COMMENT: cell-based
# Assay type: cell-based
# RUN PARAMETERS: intracellular cAMP, CHO-K1 cells, NKH-477 prestimulated; + agonist, − inverse agonist
MEASUREMENT LABEL: hCB2 EC50 range

Below: 5 compounds and their reported hCB2 EC50 range.
In [3]: df
Out[3]:
                            compound_string  measurement_label  meas_value
0  O=C(c1ccc2c(c1)N(S(=O)(=O)c1ccc(F)cc1)CCS2)N1CCOCC1    hCB2 EC50 range          +D
1  CC(C)(C)NC(=O)c1ccc2c(c1)N(C(=O)c1ccc(Cl)cc1)CCS2    hCB2 EC50 range          +D
2  C[C@H](NC(=O)c1ccc2c(c1)N(S(=O)(=O)c1ccccc1)CCC(C)(C)S2)C(C)(C)C    hCB2 EC50 range          +D
3   CS(=O)(=O)N1CCSc2ccc(C(=O)NC3CCCC3)cc21    hCB2 EC50 range          +E
4  O=C(c1ccc2c(c1)N(S(=O)(=O)c1ccc(C(F)(F)F)cc1)CCS2)N1CCOCC1    hCB2 EC50 range          +D

Returns the measured hCB2 EC50 range for the input compound. Input: `CC(C)NC(=O)c1ccc2c(c1)N(S(C)(=O)=O)CCS2`
+E

Next entry: `Cc1nnc(-c2ccc3c(c2)N(S(=O)(=O)c2cn(C)cn2)CCS3)o1`
+E

Check `O=S(=O)(c1ccc(C(F)(F)F)cc1)N1CCSc2ccc(-c3ncc(-c4ccccc4)[nH]3)cc21` too.
+C

# iterate: `COc1ccc(C(=O)N2CCSc3ccc(C(=O)NC45CC6CC(CC(C6)C4)C5)cc32)cc1`
−E

###

# TESTED SYSTEM: rat CB2 receptor (rCB2) (Rattus norvegicus)
# ASSAY COMMENT: cell-based
# Assay type: cell-based
# RUN PARAMETERS: intracellular cAMP, CHO-K1 cells, NKH-477 prestimulated; + agonist, − inverse agonist
MEASUREMENT LABEL: rCB2 EC50 range

Sample answers from the record:
>>> print(df.to_string())
                                   compound                             tested_system  meas_value
0  CC(C)(C)NC(=O)c1ccc2c(c1)N(C(=O)c1ccccc1)CCS2 [Example 9]  rat CB2 receptor (rCB2) (Rattus norvegicus)          −D
1  CC(C)CNC(=O)c1ccc2c(c1)N(S(=O)(=O)c1ccc(Cl)cc1)CCO2 [Example 58]  rat CB2 receptor (rCB2) (Rattus norvegicus)          +A
2  CC(=O)N1CCSc2ccc(C(=O)NC3CCCC3)cc21 [Example 35]  rat CB2 receptor (rCB2) (Rattus norvegicus)          −E
3  CCN(CC)C(=O)c1ccc2c(c1)N(S(=O)(=O)c1ccc(F)cc1)CCS2 [Example 70]  rat CB2 receptor (rCB2) (Rattus norvegicus)          +C

Sample COc1ccc(C(=O)N2CCSc3ccc(C(=O)NC(C)C)cc32)cc1 [Example 30] — what was its rCB2 EC50 range?
−E

What do we get for CC(C)(C)NC(=O)c1ccc2c(c1)N(S(=O)(=O)c1ccccc1)CCS2 [Example 46] ?
+B

Continue with CC(C)CNC(=O)c1ccc2c(c1)N(S(=O)(=O)c1ccc(F)cc1)CCO2 [Example 60]
+B

And then COCCCNC(=O)c1ccc2c(c1)N(C(=O)c1ccc(F)cc1)CCS2 [Example 17] , what is it?
−E

And what about the compound CN(C)C(=O)c1ccc2c(c1)N(S(=O)(=O)c1ccc(C(F)(F)F)cc1)CCS2 [Example 72] ?
+C

###

# TESTED SYSTEM: human CB2 receptor (hCB2) (Homo sapiens)
# ASSAY COMMENT: cell-based
# Assay type: cell-based
# RUN PARAMETERS: intracellular cAMP, CHO-K1 cells, NKH-477 prestimulated; + agonist, − inverse agonist
MEASUREMENT LABEL: hCB2 EC50 range

>>> df
                            compound_string  measurement_label  meas_value
0  CC(C)(C)CNC(=O)c1ccc2c(c1)N(S(=O)(=O)c1ccccc1)CCC(C)(C)S2    hCB2 EC50 range          +D
1  COCCCNC(=O)c1ccc2c(c1)N(C(=O)c1ccc(C)cc1)CCS2    hCB2 EC50 range          −E
2  CC(C)C(=O)N1CCSc2ccc(C(=O)NC34CC5CC(CC(C5)C3)C4)cc21    hCB2 EC50 range          +D
3  COC(=O)[C@@H](NC(=O)c1ccc2c(c1)N(S(=O)(=O)c1ccccc1)CCC(C)(C)S2)C(C)(C)C    hCB2 EC50 range          +D
4  O=C(NC1CCCC1)c1ccc2c(c1)N(S(=O)(=O)c1ccccc1)CCO2    hCB2 EC50 range          +C
5  COCCCNC(=O)c1ccc2c(c1)N(S(=O)(=O)c1ccccc1)CCS2    hCB2 EC50 range          +D
6  CN(C)C(=O)c1ccc2c(c1)N(S(=O)(=O)c1ccc(F)cc1)CCS2    hCB2 EC50 range          +E

Fill in the blank: the reported hCB2 EC50 range of `O=C(NC12CC3CC(CC(C3)C1)C2)c1ccc2c(c1)N(C(=O)c1ccc(Cl)cc1)CCS2` is ____.
−E

###

# TESTED SYSTEM: human CB1 receptor (hCB1) (Homo sapiens, UniProt P21554)
# Sequence (P21554 whole entry): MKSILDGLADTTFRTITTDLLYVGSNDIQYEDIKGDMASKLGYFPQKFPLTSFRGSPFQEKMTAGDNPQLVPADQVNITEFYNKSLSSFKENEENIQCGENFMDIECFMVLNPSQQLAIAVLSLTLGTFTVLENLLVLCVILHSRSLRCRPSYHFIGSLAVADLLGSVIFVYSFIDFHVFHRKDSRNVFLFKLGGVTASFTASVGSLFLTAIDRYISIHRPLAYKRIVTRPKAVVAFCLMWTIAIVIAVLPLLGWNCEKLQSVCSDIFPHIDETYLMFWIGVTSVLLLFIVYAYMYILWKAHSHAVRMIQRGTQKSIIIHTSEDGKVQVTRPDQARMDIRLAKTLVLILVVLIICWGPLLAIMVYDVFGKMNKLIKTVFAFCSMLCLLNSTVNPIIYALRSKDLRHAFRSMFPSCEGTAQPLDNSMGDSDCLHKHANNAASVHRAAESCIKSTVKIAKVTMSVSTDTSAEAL
# ASSAY COMMENT: cAMP assay (LANCE TR-FRET) in CHO-K1 cells expressing hCB1
# Type: cell-based
# RUN PARAMETERS: intracellular cAMP, NKH-477 prestimulated, + agonist, − inverse agonist
MEASUREMENT LABEL: hCB1 EC50 range

Guide cases for hCB1 EC50 range, answers given:
                            compound_string  meas_value
0  CC(C)(C)c1noc(-c2ccc3c(c2)N(S(=O)(=O)c2ccc(C(F)(F)F)cc2)CCS3)n1          +D
1  O=S(=O)(c1ccc(F)cc1)N1CCSc2ccc(-c3nnc(-c4ccccc4)o3)cc21          +D
2  C[C@H](NC(=O)c1ccc2c(c1)N(S(=O)(=O)c1ccccc1)CCC(C)(C)S2)C(C)(C)C          −D
3  O=C(c1ccc2c(c1)N(S(=O)(=O)c1ccc(F)cc1)CCS2)N1CCCC1          +E
4  Cc1ccc(C(=O)N2CCSc3ccc(C(=O)NC45CC6CC(CC(C6)C4)C5)cc32)cc1          −E
5  O=C(NC1CCCC1)c1ccc2c(c1)N(S(=O)(=O)c1ccc(F)cc1)CCS2          +D
6  CC(C)(C)c1noc(-c2ccc3c(c2)N(S(=O)(=O)c2ccc(F)cc2)CCS3)n1          +D
7  CC(C)CNC(=O)c1ccc2c(c1)N(S(=O)(=O)c1ccccc1)CCC(C)(C)S2          −E

Could you tell me which hCB1 EC50 range is on file for `CC(C)CNC(=O)c1ccc2c(c1)N(S(=O)(=O)c1ccc(F)cc1)CCO2` ?
+D

Repeat for the following compound: `O=C(c1ccc2c(c1)N(S(=O)(=O)c1ccc(F)cc1)CCS2)N1CCCCC1`
+E

###

# TESTED SYSTEM: rat CB2 receptor (rCB2) (Rattus norvegicus, UniProt Q9QZN9)
# Sequence (Q9QZN9 1-360): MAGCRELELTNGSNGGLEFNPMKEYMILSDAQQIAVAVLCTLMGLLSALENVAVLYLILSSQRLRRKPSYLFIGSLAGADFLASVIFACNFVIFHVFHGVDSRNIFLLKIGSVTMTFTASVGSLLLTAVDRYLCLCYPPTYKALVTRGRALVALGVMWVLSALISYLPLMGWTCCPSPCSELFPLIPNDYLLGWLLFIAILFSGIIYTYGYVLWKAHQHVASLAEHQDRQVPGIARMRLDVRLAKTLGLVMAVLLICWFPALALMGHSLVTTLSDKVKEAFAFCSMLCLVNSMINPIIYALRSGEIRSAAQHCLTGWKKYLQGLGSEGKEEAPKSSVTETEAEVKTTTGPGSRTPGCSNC
# ASSAY COMMENT: cell-based
# Type: cell-based
# RUN PARAMETERS: intracellular cAMP, CHO-K1 cells, NKH-477 prestimulated; + agonist, − inverse agonist
MEASUREMENT LABEL: rCB2 EC50 range

In [3]: df
Out[3]:
                            compound_string  meas_value
0  CC1(C)CCN(S(=O)(=O)c2ccc(F)cc2)c2cc(C(=O)N3CCOCC3)ccc2S1          +C
1  CCc1noc(-c2ccc3c(c2)N(S(=O)(=O)c2ccc(F)cc2)CCS3)n1          +A
2  Cc1ccc(C(=O)N2CCSc3ccc(C(=O)NC45CC6CC(CC(C6)C4)C5)cc32)cc1          −D
3   CC(C)NC(=O)c1ccc2c(c1)N(S(C)(=O)=O)CCS2          +D

Data provenance: patent US7960376B2
